Source listed as PubChem BioAssay.

experiment notes: endothelial E-selectin expression blockers – imaging, HUVEC, immunofluorescence, MLSMR starter and 10KST1 sets, primary screen (AID 487);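 further: signal is fraction of cell area covered by stained E-selectin grains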
applied conditions: HUVEC TNFalpha-induced E-selectin immunofluorescence imaging, at 2 µM; stronger effect = higher value
The recorded inhibition of each item maps onto one of these classes: lo: < -30%; med: ≥ -30% and < 10%; hi: ≥ 10%

compound: COC(=O)Cn1cnc2sc(C)c(S(=O)(=O)N3CCC(C)CC3)c2c1=O
group: lo

compound: CCOC(=O)c1c(NC(=O)CSc2nc3c(c(=O)n(C)c(=O)n3C)n2C(C)C)sc(C)c1C
group: hi

compound: Cc1cccc(NC(=O)c2cc3ccccc3o2)c1
group: hi

compound: O=C(c1cc(-c2ccco2)nn1-c1cccc(Cl)c1)N1CCCCC1
group: med

compound: COc1ccc(OC)c(NC(=O)CSc2nnc(-c3ccco3)n2-c2ccccc2)c1
group: lo

compound: O=c1c2ccccc2nc(SCc2cn3ccsc3n2)n1-c1ccc(F)cc1
group: hi

compound: CCOC(=O)c1cnc(-n2nc(C)cc2C)nc1NC(C)c1ccccc1 (stereo not drawn)
group: hi

compound: Cc1cc(NCCN2CCOCC2)n2nc(C)c(-c3ccccc3)c2n1
group: lo

compound: Cc1ccc(-c2nnn(CC(=O)N(CC(=O)NC3CCCCC3)c3cnc4ccccc4c3)n2)o1
group: med

compound: Cn1c(=O)cc(OCC(=O)NCCCN2CCN(Cc3ccccc3)CC2)c2ccccc21
group: lo

compound: O=C(Nc1ccccc1C(=O)N1CCOCC1)c1ccncc1
group: lo

compound: Cc1nc(NC2=NCN(CCN3CCOCC3)CN2)nc2c(C)cccc12
group: med

compound: CCc1ccccc1NC(=O)CSc1nc2n[nH]c(C)c2c(=N)n1-c1ccc(OC)cc1
group: hi

compound: COc1cc(Nc2cc(C)nc3ncnn23)cc(OC)c1OC
group: med

compound: CCCCC(NC(C)=O)c1nc2ccccc2n1CCC (stereo not drawn)
group: hi

compound: Cc1ccc2c(c1)c1c3n2CC(=C2C(=O)OC(C)(C)OC2=O)NC3CCC1 (stereo not drawn)
group: lo

compound: C=CCNC(=O)c1ccc(Cl)cc1Cl
group: lo

compound: CCC1(CC)NC(=O)NC1=O
group: hi

compound: Cc1nc2ccc(NC(=O)N3CCC(c4ccccc4)C3)cc2nc1C (stereo not drawn)
group: hi

compound: Cc1cccc(NC(=O)CC2NC3CCCCC3NC2=O)c1 (stereo not drawn)
group: med

compound: CCc1c(C(=O)Nc2cc(C)ccc2OC)[nH]c(C)c1C(C)=O
group: med

compound: Cn1c(C(=O)NCc2cccnc2)cc2sccc21
group: med
